Value source: patent US9072734B2

Provide the reported pIC50 of each item.
# Target Entity: human M3 muscarinic receptor (Homo sapiens)
# Construct: expressed in transfected cells; host or cells: CHO-K1
# Assay Info: Inhibitory effect on methacholine-induced calcium influx, FLIPR assay, CHO-K1 cells stably expressing the human M3 muscarinic receptor
# Format: cell-based
# Experimental Context: inhibition of calcium influx induced by methacholine
Where a name gives a salt, the structure may show the parent alone.
Give bare numbers, as −log10 of the molar value.

Examples with answers:
- Compound: "COc1cc(NC(=O)CCCc2ccc(-c3ccccc3)c(NC(=O)OC3C[C@H]4CC[C@H](C3)[N+]4(C)C)c2)c(Cl)cc1CNC[C@H](O)c1ccc(O)c2[nH]c(=O)ccc12 (stereo partly drawn)"
  pIC50: 7.66
- Compound: "C[N+]1(C)CCC(OC(=O)Nc2cc(CCCCOc3ccc(CNC[C@H](O)c4ccc(O)c5[nH]c(=O)ccc45)cc3)ccc2-c2ccccc2)CC1 [Example 61, trifluoroacetate]"
  pIC50: 7.42

Next compound, please.
Prompt: May I ask what pIC50 has been recorded for C[N+]1(C)CCC(OC(=O)Nc2ccc(CCCC(=O)Nc3ccc(CNC[C@H](O)c4ccc(O)c5[nH]c(=O)ccc45)cc3)cc2-c2ccccc2)CC1 [Example 54, trifluoroacetate] ?
Completion: 7.68

###

# Target Entity: human M3 muscarinic receptor (Homo sapiens, UniProt P20309)
# Construct: expressed in transfected cells; host or cells: CHO-K1
# Sequence (P20309 whole entry): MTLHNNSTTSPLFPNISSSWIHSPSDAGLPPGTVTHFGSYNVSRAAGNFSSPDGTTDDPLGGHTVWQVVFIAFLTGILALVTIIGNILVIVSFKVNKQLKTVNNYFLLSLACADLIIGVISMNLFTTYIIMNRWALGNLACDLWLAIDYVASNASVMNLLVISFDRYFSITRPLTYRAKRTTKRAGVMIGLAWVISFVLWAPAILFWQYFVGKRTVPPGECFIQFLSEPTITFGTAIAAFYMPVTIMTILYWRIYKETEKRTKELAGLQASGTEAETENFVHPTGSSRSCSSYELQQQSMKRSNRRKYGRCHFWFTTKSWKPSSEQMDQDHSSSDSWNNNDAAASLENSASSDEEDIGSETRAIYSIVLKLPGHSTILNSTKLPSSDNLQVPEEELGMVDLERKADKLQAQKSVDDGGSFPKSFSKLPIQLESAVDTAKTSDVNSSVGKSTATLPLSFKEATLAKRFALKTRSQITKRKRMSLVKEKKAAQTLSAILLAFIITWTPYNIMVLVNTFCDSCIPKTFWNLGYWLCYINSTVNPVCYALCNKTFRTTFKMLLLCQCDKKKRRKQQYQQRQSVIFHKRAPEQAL
# Assay Info: Inhibitory effect on methacholine-induced calcium influx, FLIPR assay, CHO-K1 cells stably expressing the human M3 muscarinic receptor
# Format: cell-based
# Experimental Context: inhibition of calcium influx induced by methacholine
Structures can show the parent of a compound that is named as a salt.
Decide using IC50 alone. Strictly below 20 nM: 1 (yes). Equal to or above 20 nM: 0 (no).

Illustrative cases are given below, each with its answer.
- Molecule: "C[N+]1(C)[C@@H]2CC(OC(=O)Nc3cc(CCCCC(=O)Nc4ccc(CNC[C@H](O)c5ccc(O)c6[nH]c(=O)ccc56)cc4)ccc3-c3ccccc3)C[C@H]1[C@@H]1O[C@@H]12 (stereo partly shown) [Example 50]"
  Assigned Class: "0 (no)"
- Molecule: "C[N+]1(C)[C@@H]2CC(OC(=O)Nc3ccc(CCCC(=O)Nc4ccc(CNC[C@H](O)c5ccc(O)c6[nH]c(=O)ccc56)cc4)cc3-c3ccccc3)C[C@H]1[C@@H]1O[C@@H]12 (stereo partly shown) [Example 53]"
  Assigned Class: "0 (no)"
- Molecule: "COc1cc(CNC[C@H](O)c2ccc(O)c3[nH]c(=O)ccc23)ccc1NC(=O)CCCc1ccc(-c2ccccc2)c(NC(=O)OC2CC[N+](C)(C)CC2)c1 [Example 21, trifluoroacetate]"
  Assigned Class: "1 (yes)"

Prompt: Is it true that IC50 reported for C[N+]1(C)CCC(OC(=O)Nc2ccc(CCC(=O)Nc3ccc(CNC[C@H](O)c4ccc(O)c5[nH]c(=O)ccc45)cc3)cc2-c2ccccc2)CC1 [Example 69, trifluoroacetate] is less than 20 nM?
Completion: 0 (no)

Prompt: Same for C[N+]1(C)CCC(OC(=O)Nc2cc(CCC(=O)Nc3ccc(CCNC[C@H](O)c4ccc(O)c5[nH]c(=O)ccc45)cc3)ccc2-c2ccccc2)CC1 [Example 63, trifluoroacetate]
Completion: 0 (no)

Prompt: Same for COc1cc(NC(=O)CCc2ccc(-c3ccccc3)c(NC(=O)OC3CC[N+](C)(C)CC3)c2)ccc1CNC[C@H](O)c1ccc(O)c2[nH]c(=O)ccc12 [Example 6, trifluoroacetate]
Completion: 1 (yes)

Prompt: Same for Cc1cc(CNC[C@H](O)c2ccc(O)c3[nH]c(=O)ccc23)ccc1NC(=O)CCc1ccc(-c2ccccc2)c(NC(=O)OC2C[C@@H]3[C@H]4O[C@H]4[C@H](C2)[N+]3(C)C)c1 (stereo partly shown) [Example 43]
Completion: 1 (yes)

Prompt: Same for C[N+]1(C)CCC(OC(=O)Nc2cc(CCCOc3ccc(CCNC[C@H](O)c4ccc(O)c5[nH]c(=O)ccc45)cc3)ccc2-c2ccccc2)CC1 [Example 77, trifluoroacetate]
Completion: 0 (no)

Prompt: Same for COc1cc(NC(=O)CCCc2ccc(NC(=O)O[C@@H]3C[C@@H]4[C@H]5O[C@H]5[C@H](C3)[N+]4(C)C)c(-c3ccccc3)c2)c(Cl)cc1CNC[C@H](O)c1ccc(O)c2[nH]c(=O)ccc12 [Example 55]
Completion: 0 (no)

Prompt: Same for C[N+]1(C)CCC(OC(=O)Nc2cc(CCCC(=O)Nc3ccc(CNC[C@H](O)c4ccc(O)c5[nH]c(=O)ccc45)cc3Cl)ccc2-c2ccccc2)CC1 [Example 19, trifluoroacetate]
Completion: 1 (yes)

Prompt: Same for Cc1cc(CNC[C@H](O)c2ccc(O)c3[nH]c(=O)ccc23)ccc1NC(=O)CCc1ccc(-c2ccccc2)c(NC(=O)OC2CC[N+](C)(C)CC2)c1 [Example 11, trifluoroacetate]
Completion: 1 (yes)

Prompt: Same for C[N+]1(C)[C@@H]2CC(OC(=O)Nc3cc(CCC(=O)Nc4ccc(CCCNC[C@H](O)c5ccc(O)c6[nH]c(=O)ccc56)cc4)ccc3-c3ccccc3)C[C@H]1[C@@H]1O[C@@H]12 (stereo partly shown) [Example 73]
Completion: 0 (no)

Prompt: Same for C[N+]1(C)[C@@H]2C[C@@H](OC(=O)Nc3ccc(CCCC(=O)Nc4ccc(CNC[C@H](O)c5ccc(O)c6[nH]c(=O)ccc56)cc4Cl)cc3-c3ccccc3)C[C@H]1[C@@H]1O[C@@H]12 [Example 71]
Completion: 0 (no)

Prompt: Same for C[N+]1(C)CCC(OC(=O)Nc2cc(CCCC(=O)Nc3ccc4cc(CNC[C@H](O)c5ccc(O)c6[nH]c(=O)ccc56)ccc4c3)ccc2-c2ccccc2)CC1 [Example 23, trifluoroacetate]
Completion: 0 (no)

Prompt: Same for C[N+]1(C)CCC(OC(=O)Nc2cc(CCCC(=O)Nc3ccc(CNC[C@H](O)c4ccc(O)c5[nH]c(=O)ccc45)cc3Br)ccc2-c2ccccc2)CC1 [Example 30, trifluoroacetate]
Completion: 1 (yes)

Prompt: Same for C[N+]1(C)CCC(OC(=O)Nc2cc(CCC(=O)Nc3ccc4cc(CNC[C@H](O)c5ccc(O)c6[nH]c(=O)ccc56)ccc4c3)ccc2-c2ccccc2)CC1 [Example 12, trifluoroacetate]
Completion: 0 (no)

###

Provide the reported IC50 of each item.
# Target Entity: human M3 muscarinic receptor (Homo sapiens)
# Construct: expressed in transfected cells; host or cells: CHO-K1
# Assay Info: Inhibitory effect on methacholine-induced calcium influx, FLIPR assay, CHO-K1 cells stably expressing the human M3 muscarinic receptor
# Format: cell-based
# Experimental Context: inhibition of calcium influx induced by methacholine
Counter-ions that a name gives are not always drawn.
One number for each entry, in nM.

- Compound: "C[N+]1(C)CCC(OC(=O)Nc2cc(CCCC(=O)Nc3ccc(CNC[C@H](O)c4ccc(O)c5[nH]c(=O)ccc45)cc3)ccc2-c2ccccc2)CC1 [Example 32, trifluoroacetate]"
  Target Entity: "human M3 muscarinic receptor (Homo sapiens)"
  Output Unit: "nM"
  IC50: 16.1

Count: 2. Required value per item: IC50.
1. C[N+]1(C)[C@@H]2CC(OC(=O)Nc3cc(CCCC(=O)Nc4ccc(CNC[C@H](O)c5ccc(O)c6[nH]c(=O)ccc56)cc4Cl)ccc3-c3ccccc3)C[C@H]1[C@@H]1O[C@@H]12 (some centres unmarked) [Example 37]
2. C[N+]1(C)CCC(OC(=O)Nc2cc(CCNC(=O)c3ccc(CNC[C@H](O)c4ccc(O)c5[nH]c(=O)ccc45)cc3)ccc2-c2ccccc2)CC1 [Example 80]

Completion:
1. 18.2
2. 29.9

Count: 3. Required value per item: IC50.
1. Cc1cc(CNC[C@H](O)c2ccc(O)c3[nH]c(=O)ccc23)ccc1NC(=O)CCCc1ccc(-c2ccccc2)c(NC(=O)OC2CC[N+](C)(C)CC2)c1 [Example 22, trifluoroacetate]
2. COc1cc(NC(=O)CCc2ccc(-c3ccccc3)c(NC(=O)O[C@@H]3C[C@@H]4[C@H]5O[C@H]5[C@H](C3)[N+]4(C)C)c2)ccc1CNC[C@H](O)c1ccc(O)c2[nH]c(=O)ccc12 [Example 42]
3. COc1cc(CNC[C@H](O)c2ccc(O)c3[nH]c(=O)ccc23)ccc1NC(=O)CCc1ccc(-c2ccccc2)c(NC(=O)O[C@@H]2C[C@@H]3[C@H]4O[C@H]4[C@H](C2)[N+]3(C)C)c1 [Example 41]

Completion:
1. 15.8
2. 12.3
3. 12.9

Count: 2. Required value per item: IC50.
1. CCOc1cc(NC(=O)CCc2ccc(-c3ccccc3)c(NC(=O)OC3C[C@@H]4[C@H]5O[C@H]5[C@H](C3)[N+]4(C)C)c2)ccc1CNC[C@H](O)c1ccc(O)c2[nH]c(=O)ccc12 (some centres unmarked) [Example 47]
2. COc1cc(NC(=O)CCCCc2ccc(-c3ccccc3)c(NC(=O)OC3CC[N+](C)(C)CC3)c2)c(Cl)cc1CNC[C@H](O)c1ccc(O)c2[nH]c(=O)ccc12 [Example 51, trifluoroacetate]

Completion:
[16.5, 13.2]
